Tested on: Saccharomyces cerevisiae;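 further: PSI derived as read-weighted mean over the 8 sorting bins, only variants exceeding 10 total reads kept, mCherry placed adjacent to the peptide and sfGFP distal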
Experiment: protein stability index of tFT-peptide fusion in wild type (PSI (0-1 scale)); higher = more stable (slower turnover)
Conditions: genetic background: wild type
Entries annotated with measured protein stability index
Please reply with the value in numeric form only.

- FSMRWTKRYWVN: 0.0745

Return reported protein stability index. Input sequence: AIYLPMCPLLLR 0.268

Return reported protein stability index. Input sequence: ARWRVGLWRIAS 0.088

Return reported protein stability index. Input sequence: AITLPMCPLLTR 0.561

Return reported protein stability index. Input sequence: GLYCCSVGCWFR 0.342

Return reported protein stability index. Input sequence: CLVSLPQLLFFR 0.0822

Return reported protein stability index. Input sequence: PHKRNHLIKLLN 0.141

Return reported protein stability index. Input sequence: AITLPMCPLLRR 0.62
